I'd be grateful if you could share measured pKd for these entries.
- subject_of_test: P dimer VA387 (Human calicivirus NLV/VA98387/1998, UniProt Q913Z3)
- Sequence (Q913Z3 222-539): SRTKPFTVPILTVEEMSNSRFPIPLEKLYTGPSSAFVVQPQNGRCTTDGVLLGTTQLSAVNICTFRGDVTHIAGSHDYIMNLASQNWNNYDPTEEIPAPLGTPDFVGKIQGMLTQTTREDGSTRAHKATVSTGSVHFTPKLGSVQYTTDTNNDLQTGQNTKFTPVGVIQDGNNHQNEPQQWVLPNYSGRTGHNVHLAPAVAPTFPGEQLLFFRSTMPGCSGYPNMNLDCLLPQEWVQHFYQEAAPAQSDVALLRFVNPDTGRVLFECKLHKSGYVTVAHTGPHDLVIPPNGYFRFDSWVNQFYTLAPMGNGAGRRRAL
- assay_protocol: Direct ESI-MS assay
- experimental_parameters: n = 3
The value called pKd is obtained by taking minus log10 of the concentration in mol/L.

According to the records, this molecule CC(=O)N[C@H]1[C@H](O[C@@H]2[C@H](O[C@]3(C(=O)O)C[C@H](O)[C@@H](NC(C)=O)[C@H]([C@H](O)[C@@H](CO)O[C@]4(C(=O)O)C[C@H](O)[C@@H](NC(C)=O)[C@H]([C@H](O)[C@H](O)CO)O4)O3)[C@@H](O)[C@H](O[C@H]3[C@H](O)[C@@H](O)C(O)O[C@@H]3CO)O[C@@H]2CO)O[C@H](CO)[C@H](O)[C@@H]1O (stereo partly shown) [GD2] displays pKd of 2.18

According to the records, this molecule CC(=O)N[C@H]1[C@H]([C@H](O)[C@H](O)CO)O[C@@](O[C@H](CO)[C@@H](O)[C@@H]2O[C@@](O[C@H]3[C@@H](O)[C@@H](CO)O[C@@H](O[C@H]4[C@H](O)[C@@H](O)C(O)O[C@@H]4CO)[C@@H]3O)(C(=O)O)C[C@H](O)[C@H]2NC(C)=O)(C(=O)O)C[C@@H]1O (stereo partly shown) [GD3] displays pKd of 2.53

According to the records, this molecule CC(=O)N[C@H]1[C@H](O[C@@H]2[C@H](O[C@]3(C(=O)O)C[C@H](O)[C@@H](NC(C)=O)[C@H]([C@H](O)[C@H](O)CO)O3)[C@@H](O)[C@H](O[C@H]3[C@H](O)[C@@H](O)C(O)O[C@@H]3CO)O[C@@H]2CO)O[C@H](CO)[C@H](O)[C@@H]1O (stereo partly shown) [GM2] displays pKd of 2.56

# credit: paper PMC4160279
